- test-target: EGFR L858R/T790M/C797S (Homo sapiens, UniProt P00533, C797S/L858R/T790M)
- Sequence (P00533 25-1210 T790M/C797S/L858R): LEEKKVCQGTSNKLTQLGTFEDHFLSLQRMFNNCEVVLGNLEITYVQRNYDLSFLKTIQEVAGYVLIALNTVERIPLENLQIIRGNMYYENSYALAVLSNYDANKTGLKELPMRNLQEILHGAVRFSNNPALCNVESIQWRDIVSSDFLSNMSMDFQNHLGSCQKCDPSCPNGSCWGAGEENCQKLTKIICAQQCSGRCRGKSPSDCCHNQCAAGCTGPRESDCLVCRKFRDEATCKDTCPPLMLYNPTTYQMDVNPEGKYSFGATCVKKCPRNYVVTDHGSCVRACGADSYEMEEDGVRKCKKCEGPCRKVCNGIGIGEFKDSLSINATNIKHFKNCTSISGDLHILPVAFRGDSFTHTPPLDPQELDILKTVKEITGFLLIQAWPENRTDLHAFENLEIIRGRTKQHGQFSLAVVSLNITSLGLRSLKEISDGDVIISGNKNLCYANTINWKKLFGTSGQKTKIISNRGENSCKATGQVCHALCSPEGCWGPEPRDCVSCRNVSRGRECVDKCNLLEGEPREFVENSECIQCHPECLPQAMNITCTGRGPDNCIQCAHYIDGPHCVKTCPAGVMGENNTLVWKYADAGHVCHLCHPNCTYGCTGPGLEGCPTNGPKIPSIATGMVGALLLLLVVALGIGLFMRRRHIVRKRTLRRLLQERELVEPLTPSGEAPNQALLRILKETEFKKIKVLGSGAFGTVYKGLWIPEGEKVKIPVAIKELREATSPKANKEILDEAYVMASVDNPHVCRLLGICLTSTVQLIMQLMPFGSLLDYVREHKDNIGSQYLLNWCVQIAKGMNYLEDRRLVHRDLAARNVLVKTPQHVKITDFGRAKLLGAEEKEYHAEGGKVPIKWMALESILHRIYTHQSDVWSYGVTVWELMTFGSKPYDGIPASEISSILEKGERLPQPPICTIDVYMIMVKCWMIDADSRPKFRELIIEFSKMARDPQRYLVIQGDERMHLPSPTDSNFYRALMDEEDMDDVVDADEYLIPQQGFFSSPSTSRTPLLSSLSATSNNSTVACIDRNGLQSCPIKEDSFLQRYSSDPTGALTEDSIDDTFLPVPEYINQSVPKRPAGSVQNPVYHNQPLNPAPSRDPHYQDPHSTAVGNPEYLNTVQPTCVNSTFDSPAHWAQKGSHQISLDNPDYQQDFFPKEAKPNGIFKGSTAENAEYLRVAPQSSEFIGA
- protocol-text: Biochemical EGFR kinase assay (Lance Ultra TR-FRET), triple mutant L858R/T790M/C797S
- experimental-conditions: ATP at Km; read-out: IC50 L858R/T790M/C797S, Km ATP
For each of the molecules below, state its IC50.
Quick note: give the figure in nM, leave out the unit.

Exam item: Return IC50 (reported value) for this molecule: C[C@]1(O)CC[C@@H](Nc2cc(Nc3ccnc(-c4cnn(S(=O)(=O)C5CC5)c4)n3)ncc2-c2ccc(OCCO)cn2)CC1 [Example 205]
Marked response: 0.2

Exam item: Return IC50 (reported value) for this molecule: CN1CC(Oc2ccc(-c3cnc(Nc4ccnc(-c5cnn(S(=O)(=O)C6CC6)c5)n4)cc3N[C@H]3CC[C@@](C)(O)CC3)nc2)C1 [Example 289]
Marked response: 0.1

Exam item: Return IC50 (reported value) for this molecule: CN1CCC(Oc2cccc(-c3cnc(Nc4ccnc(-c5cnn(S(=O)(=O)C6CC6)c5)n4)cc3N[C@H]3CC[C@@](C)(O)CC3)n2)CC1 [Example 286]
Marked response: 0.1

Exam item: Return IC50 (reported value) for this molecule: CC(C)(O)c1ccc(-c2cnc(Nc3ccnc(-c4cnn(S(=O)(=O)C5CC5)c4)n3)cc2NC2CCN(CCF)CC2)nc1 [Example 176]
Marked response: 0.4

Exam item: Return IC50 (reported value) for this molecule: CN1CCN(C(=O)c2ccc(-c3cnc(Nc4ccnc(-c5cnn(S(=O)(=O)C6CC6)c5)n4)cc3N[C@H]3CC[C@@H](CN(C)C)CC3)nc2)CC1 [Example 204]
Marked response: 0.1

Exam item: Return IC50 (reported value) for this molecule: CN(C)S(=O)(=O)n1cc(-c2nccc(Nc3cc(NC4CCC(C)(O)CC4)c(-c4ccc(C(C)(O)C(F)(F)F)cn4)cn3)n2)cn1 (stereo not drawn) [Example 298]
Marked response: 1.1

###

- test-target: EGFR L858R/T790M/C797S (Homo sapiens, UniProt P00533, C797S/L858R/T790M)
- protocol-text: Biochemical EGFR kinase assay (Lance Ultra TR-FRET), triple mutant L858R/T790M/C797S
- experimental-conditions: Km ATP; read-out: IC50 L858R/T790M/C797S (nM) Km ATP
For each of the compounds below, state its IC50.
Quick note: give the figure in nM, leave out the unit.

Exam item: Check EGFR L858R/T790M/C797S (Homo sapiens, UniProt P00533, C797S/L858R/T790M) data and give IC50 for O=S(=O)(C1CC1)n1cc(-c2nccc(Nc3cc(N[C@H]4CC[C@@H](CO)CC4)c(-c4ccc(CN5CCC(O)CC5)cn4)cn3)n2)cn1 [Example 99] .
Marked response: 0.04

Exam item: Check EGFR L858R/T790M/C797S (Homo sapiens, UniProt P00533, C797S/L858R/T790M) data and give IC50 for CC(C)(O)[C@H]1CC[C@@H](Nc2cc(Nc3ccnc(-c4cnn(S(=O)(=O)C5CC5)c4)n3)ncc2-c2ccc(N3CCCC3)cn2)CC1 [Example 82] .
Marked response: 2.8

Exam item: Check EGFR L858R/T790M/C797S (Homo sapiens, UniProt P00533, C797S/L858R/T790M) data and give IC50 for C[C@]1(O)CC[C@@H](Nc2cc(Nc3ccnc(-c4cnn(S(=O)(=O)C5CC5)c4)n3)ncc2-c2ccc(N3CC(F)(F)C3)nn2)CC1 [Example 66] .
Marked response: 0.1
